Target: furin, P09958;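 further: purified furin at 1:10 enzyme:substrate in 50 mM HEPES pH 7.5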
Sequence (P09958 whole entry): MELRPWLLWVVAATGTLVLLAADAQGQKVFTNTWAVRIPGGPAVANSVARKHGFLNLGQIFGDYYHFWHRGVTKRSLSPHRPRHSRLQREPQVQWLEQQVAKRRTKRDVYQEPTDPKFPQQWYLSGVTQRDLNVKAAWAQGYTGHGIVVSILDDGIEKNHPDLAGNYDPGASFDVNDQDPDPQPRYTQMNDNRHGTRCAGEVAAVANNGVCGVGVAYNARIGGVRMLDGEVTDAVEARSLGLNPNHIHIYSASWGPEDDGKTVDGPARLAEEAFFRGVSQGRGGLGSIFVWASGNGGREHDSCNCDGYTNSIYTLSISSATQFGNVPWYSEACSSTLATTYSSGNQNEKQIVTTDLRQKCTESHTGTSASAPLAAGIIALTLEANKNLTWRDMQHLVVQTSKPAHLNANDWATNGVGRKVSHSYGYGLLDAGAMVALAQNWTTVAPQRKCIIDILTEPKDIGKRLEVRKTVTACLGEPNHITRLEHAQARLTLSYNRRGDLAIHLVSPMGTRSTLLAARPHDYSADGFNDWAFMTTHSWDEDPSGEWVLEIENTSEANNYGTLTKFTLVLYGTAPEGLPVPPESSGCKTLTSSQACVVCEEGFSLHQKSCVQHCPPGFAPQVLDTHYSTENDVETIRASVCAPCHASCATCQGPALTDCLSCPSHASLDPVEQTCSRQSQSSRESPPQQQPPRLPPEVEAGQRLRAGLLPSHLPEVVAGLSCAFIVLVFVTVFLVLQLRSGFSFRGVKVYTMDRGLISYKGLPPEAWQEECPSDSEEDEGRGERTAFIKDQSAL
Assay: furin cleavage Z-score vs untreated control; higher = more cleavage, active = 3.5 or more, inactive = 1 or less, 8 variable residues between constant flanks
Settings: 30 min
This is one part of the list. No count for the full screen is at hand.
test_readout: furin cleavage Z-score
Lab note: jot down the number only; don't add units.

CATPPCSGSWAGNASASA [HC1859] | -0.721
CAPGRRRRRTAGNASASA [FS-1381] | 6.67
CATINYTIFKAGNASASA [HC471] | -1.75

Now let's try a different one.
Param item = CACTPCSAHLAGNASASA [HC2480] ; retrieve measured furin cleavage Z-score. 0.414
